- system tested: Thymidylate synthase (Lactobacillus casei, UniProt P00469)
- Sequence (P00469 whole entry): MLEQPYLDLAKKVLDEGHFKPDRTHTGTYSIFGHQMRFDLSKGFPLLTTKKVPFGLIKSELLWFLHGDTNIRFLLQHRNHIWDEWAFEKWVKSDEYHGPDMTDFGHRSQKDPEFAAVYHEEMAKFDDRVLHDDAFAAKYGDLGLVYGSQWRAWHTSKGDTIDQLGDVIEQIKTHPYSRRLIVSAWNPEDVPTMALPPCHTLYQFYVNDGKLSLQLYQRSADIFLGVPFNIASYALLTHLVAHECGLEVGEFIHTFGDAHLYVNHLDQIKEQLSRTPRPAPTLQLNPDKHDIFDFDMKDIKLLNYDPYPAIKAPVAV
- test protocol: Ability to inhibit the thymidylate synthase from Lactobacillus casei was determined and expressed as inhibition constant (Ki)
- Design: species or system Lacticaseibacillus casei
reported metric: Ki (µM)
Just the number please, in µM, no unit attached.

Query :: Given the entry COc1cc(-c2cn([C@H]3C[C@H](O)[C@@H](COP(=O)(O)O)O3)c(=O)[nH]c2=O)c(OC)c(C)c1C , report its measured Ki.
Result :: 3.6

* * *

Can you tell me MIC for the items I'm about to list?
- Species on record: Oryctolagus cuniculus
- test protocol: Minimal inhibitory concentration against vaccinia virus-induced cytopathogenicity by 50% in rabbit kidney cell cultures
- Type: functional

Query :: Item CC1=C(C)C(=O)C(c2cn([C@H]3C[C@H](O)[C@@H](CO)O3)c(=O)[nH]c2=O)=CC1=O has what recorded MIC?
Result :: > 100 µg/mL

Query :: Please look up its MIC: CC1=C(c2cn([C@H]3C[C@H](O)[C@@H](CO)O3)c(=O)[nH]c2=O)C(=O)c2ccccc2C1=O
Result :: > 10 µg/mL

Query :: # lookup: MIC of CC1=C(C)C(=O)C(c2cn([C@H]3C[C@H](O)[C@@H](CO)O3)c(=O)[nH]c2=O)=C(C)C1=O
Result :: > 200 µg/mL
